The reported measurements were obtained from ChEMBL document CHEMBL3813683.

Recorded IC50 by entry
experiment: Cytotoxicity against HEK293T cells after 36 hrs by MTT assay; format: cell-based; conditions: Homo sapiens, HEK-293T
recorded.metric: IC50

INSERT INTO assay_data (molecule, recorded_metric, assay_value) VALUES
  ('COc1cc(C2c3cc4c(cc3[C@H](OC(=O)[C@@H](C)N3C(=O)C5CCCCC5C3=O)[C@H]3COC(=O)[C@H]23)OCO4)cc(OC)c1OC (stereo partly specified)', 'IC50', '54.5 µM'),
  ('COc1cc(C2c3cc4c(cc3[C@H](OC(=O)C(Cc3ccccc3)N3C(=O)C5C6CCC(O6)C5C3=O)[C@H]3COC(=O)[C@H]23)OCO4)cc(OC)c1OC (stereo partly specified)', 'IC50', '54.4 µM'),
  ('COc1cc(C2c3cc4c(cc3[C@H](OC(=O)[C@H](C)N3C(=O)C5CCCCC5C3=O)[C@H]3COC(=O)[C@H]23)OCO4)cc(OC)c1OC (stereo partly specified)', 'IC50', '74.2 µM'),
  ('COc1cc(C2c3cc4c(cc3[C@H](OC(=O)[C@H](Cc3ccccc3)N3C(=O)C5C6CCC(O6)C5C3=O)[C@H]3COC(=O)[C@H]23)OCO4)cc(OC)c1OC (stereo partly specified)', 'IC50', '70.3 µM'),
  ('COc1cc(C2c3cc4c(cc3[C@H](OC(=O)C(C)N3C(=O)c5ccccc5C3=O)[C@H]3COC(=O)[C@H]23)OCO4)cc(OC)c1OC (stereo partly specified)', 'IC50', '51.3 µM'),
  ('COc1cc(C2c3cc4c(cc3[C@H](OC(=O)[C@H](Cc3ccccc3)N3C(=O)c5ccccc5C3=O)[C@H]3COC(=O)[C@H]23)OCO4)cc(OC)c1OC (stereo partly specified)', 'IC50', '54.8 µM'),
  ('COc1cc([C@@H]2c3cc4c(cc3[C@@H](O[C@@H]3O[C@@H]5CO[C@@H](C)O[C@H]5[C@H](O)[C@H]3O)[C@H]3COC(=O)[C@H]23)OCO4)cc(OC)c1O [ETOPOSIDE]', 'IC50', '11.5 µM'),
  ('COc1cc(C2c3cc4c(cc3[C@H](OC(=O)[C@H](C)N3C(=O)c5ccccc5C3=O)[C@H]3COC(=O)[C@H]23)OCO4)cc(OC)c1OC (stereo partly specified)', 'IC50', '88.6 µM'),
  ('COc1cc(C2c3cc4c(cc3[C@H](OC(=O)C(C)N3C(=O)C5C6CCC(O6)C5C3=O)[C@H]3COC(=O)[C@H]23)OCO4)cc(OC)c1OC (stereo partly specified)', 'IC50', '53.2 µM'),
  ('COc1cc(C2c3cc4c(cc3[C@H](OC(=O)[C@H](Cc3ccccc3)N3C(=O)C5CCCCC5C3=O)[C@H]3COC(=O)[C@H]23)OCO4)cc(OC)c1OC (stereo partly specified)', 'IC50', '42.6 µM'),
  ('COc1cc(C2c3cc4c(cc3[C@H](OC(=O)[C@@H](Cc3ccccc3)N3C(=O)c5ccccc5C3=O)[C@H]3COC(=O)[C@H]23)OCO4)cc(OC)c1OC (stereo partly specified)', 'IC50', '50.9 µM');

* * *

assay: Cytotoxicity against HEK293T cells after 36 hrs by MTT assay; format: cell-based; conditions: Homo sapiens, HEK-293T
pIC50: −log10 of the molar value.
recorded.metric: pIC50

INSERT INTO results (molecule, recorded_metric, assay_value) VALUES
  ('COc1cc(C2c3cc4c(cc3[C@H](OC(=O)[C@@H](Cc3ccccc3)N3C(=O)C5CCCCC5C3=O)[C@H]3COC(=O)[C@H]23)OCO4)cc(OC)c1OC (stereo partly specified)', 'pIC50', 4.20),
  ('COc1cc(C2c3cc4c(cc3[C@H](OC(=O)[C@@H](C)N3C(=O)C5C6CCC(O6)C5C3=O)[C@H]3COC(=O)[C@H]23)OCO4)cc(OC)c1OC (stereo partly specified)', 'pIC50', 4.09),
  ('COc1cc(C2c3cc4c(cc3[C@H](OC(=O)[C@@H](C)N3C(=O)c5ccccc5C3=O)[C@H]3COC(=O)[C@H]23)OCO4)cc(OC)c1OC (stereo partly specified)', 'pIC50', 4.23),
  ('COc1cc([C@@H]2c3cc4c(cc3[C@H](O)[C@H]3COC(=O)[C@H]23)OCO4)cc(OC)c1OC [PODOFILOX]', 'pIC50', 5.81),
  ('COc1cc(C2c3cc4c(cc3[C@H](OC(=O)C(Cc3ccccc3)N3C(=O)C5CCCCC5C3=O)[C@H]3COC(=O)[C@H]23)OCO4)cc(OC)c1OC (stereo partly specified)', 'pIC50', 4.21),
  ('COc1cc(C2c3cc4c(cc3[C@H](OC(=O)[C@@H](Cc3ccccc3)N3C(=O)C5C6CCC(O6)C5C3=O)[C@H]3COC(=O)[C@H]23)OCO4)cc(OC)c1OC (stereo partly specified)', 'pIC50', 4.17);
